src = ChEMBL document CHEMBL4706502

experiment: Selectivity index, ratio of CC50 for human MRC5 cells to ratio of MIC99 for antitubercular activity against Mycobacterium tuberculosis H37Rv ATCC 27294 assessed as reduction in microbial growth under 7H9/glucose medium; assay type: toxicity; details: read-out: Selectivity Index
Value Kind: selectivity ratio

compound="C[S+]([O-])c1c(-c2ccc(-c3ccccc3)cc2)c[nH]c(=O)c1C#N (stereo unspecified)" value_reported=50

====

test: Cytotoxicity against human MRC5 cells assessed as reduction in cell viability after 24 hrs by NRU assay; type: cell-based
Value Kind: CC50 at 24 h (µM)

compound=CS(=O)(=O)c1c(-c2ccccc2Cl)c[nH]c(=O)c1C#N prefix_operator=> value_reported=64
compound="Cc1ccc(Oc2ccc(-c3c[nH]c(=O)c(C#N)c3[S+](C)[O-])cc2)cc1 (configuration not stated)" prefix_operator== value_reported=28
compound="Cc1ccc(Oc2cccc(-c3c[nH]c(=O)c(C#N)c3[S+](C)[O-])c2)cc1 (configuration not stated)" prefix_operator== value_reported=30
compound="C[S+]([O-])c1c(-c2ccc(Oc3ccccc3)cc2)c[nH]c(=O)c1C#N (configuration not stated)" prefix_operator=> value_reported=64
compound="C[S+]([O-])c1c(-c2ccc(C(F)(F)F)cc2)c[nH]c(=O)c1C#N (configuration not stated)" prefix_operator=> value_reported=64
compound="C[S+]([O-])c1c(-c2ccc(Oc3ccc(Cl)c(Cl)c3)cc2)c[nH]c(=O)c1C#N (configuration not stated)" prefix_operator== value_reported=28
compound="COc1ccc(Oc2ccc(-c3c[nH]c(=O)c(C#N)c3[S+](C)[O-])cc2)cc1 (configuration not stated)" prefix_operator== value_reported=23
compound="C[S+]([O-])c1c(-c2cccc(Oc3ccc(Cl)c(Cl)c3)c2)c[nH]c(=O)c1C#N (configuration not stated)" prefix_operator== value_reported=8
compound=CS(=O)(=O)c1c(-c2ccc(C(F)(F)F)cc2)c[nH]c(=O)c1C#N prefix_operator=> value_reported=64
compound="C[S+]([O-])c1c(-c2ccc(Cl)c(Cl)c2)c[nH]c(=O)c1C#N (configuration not stated)" prefix_operator=> value_reported=64
compound="C[S+]([O-])c1c(-c2cccc(OCc3cccc(Cl)c3)c2)c[nH]c(=O)c1C#N (configuration not stated)" prefix_operator=> value_reported=64
compound="C[S+]([O-])c1c(-c2ccc(Cl)cc2)c[nH]c(=O)c1C#N (configuration not stated)" prefix_operator=> value_reported=64
